- Test system: HS-Sch-2
- Test name: % inhibition of CellTiter-Glo viability at highest tested concentration (72 h), relative to DMSO and benzethonium chloride controls; higher = more inhibition
Listed compounds paired with reported % inhibition
Form entry: value (%) — number only.

These solved cases illustrate the format of a correct answer.
[
  {
    "Compound": "COc1cc(C(=O)NC2CCN(C)CC2)c(F)cc1Nc1ncc2c(n1)N(C1CCCC1)CC(F)(F)C(=O)N2C [TAK-960] (max concentration tested 2500 nM)",
    "Measured number": 16.2
  },
  {
    "Compound": "CC(=O)N(O)CCCCCNC(=O)CCC(=O)N(O)CCCCCNC(=O)CCC(=O)N(O)CCCCCN [Deferoxamine] (max concentration tested 10000 nM)",
    "Measured number": 96.3
  },
  {
    "Compound": "CCN(CC)Cc1ccc2cc(COC(=O)Nc3ccc(C(=O)NO)cc3)ccc2c1 [Givinostat] (max concentration tested 1000 nM)",
    "Measured number": 98
  },
  {
    "Compound": "CN(C)C(=O)c1cc2cnc(Nc3ccc(N4CCNCC4)cn3)nc2n1C1CCCC1 [Ribociclib] (max concentration tested 10000 nM)",
    "Measured number": 25.4
  },
  {
    "Compound": "CCCCCOC(=O)Nc1nc(=O)n([C@@H]2O[C@H](C)[C@@H](O)[C@H]2O)cc1F [Capecitabine] (max concentration tested 10000 nM)",
    "Measured number": -4.92
  },
  {
    "Compound": "O=C(Nc1ccc(-c2ccnc(Nc3ccc(N4CCOCC4)cc3)n2)cc1)[C@H]1CCCN1 [XL019] (max concentration tested 10000 nM)",
    "Measured number": 22.7
  }
]

Task: Would you mind telling me what % inhibition value was observed for CC(C)(C)C[C@@H]1N[C@@H](C(=O)N[C@H]2CC[C@H](O)CC2)[C@H](c2cccc(Cl)c2F)[C@]12C(=O)Nc1cc(Cl)ccc12 (max concentration tested 10000 nM) ?
Output: 19.6

Task: Would you mind telling me what % inhibition value was observed for Nc1nc2[nH]cnc2c(=S)[nH]1 [Thioguanine] (max concentration tested 10000 nM) ?
Output: 79.2

Task: Would you mind telling me what % inhibition value was observed for CC(C)CC(=O)Nc1n[nH]c2c1CN(C(=O)C1CCN(C)CC1)C2(C)C (max concentration tested 10000 nM) ?
Output: 101

Task: Would you mind telling me what % inhibition value was observed for CC(=O)O[C@]1(C(C)=O)CC[C@H]2[C@@H]3C=C(C)C4=CC(=O)CC[C@]4(C)[C@H]3CC[C@@]21C [Megestrol acetate] (max concentration tested 10000 nM) ?
Output: 2.53

Task: Would you mind telling me what % inhibition value was observed for CS(=O)(=O)c1ccc(C2=C(c3ccccc3)C(=O)OC2)cc1 [Rofecoxib] (max concentration tested 10000 nM) ?
Output: -5.42

Task: Would you mind telling me what % inhibition value was observed for Cc1c(F)cc(C(=O)NC2CC2)cc1-c1ccc(C(=O)NCC(C)(C)C)cn1 [Losmapimod] (max concentration tested 10000 nM) ?
Output: 1.17

----------
- Tested on: HS-PSS
- Test name: relative IC50 (inflection point of fitted dose-response curve, CellTiter-Glo viability, 72 h; top asymptote may be below 50% inhibition); higher = less potent
Output fulfilled for relative IC50 not less than 700 nM; output not fulfilled otherwise.

Past entries and their recorded results:
[
  {
    "Molecule": "COc1cc2c(Nc3ccc(Cl)c(Cl)c3F)ncnc2cc1OC[C@H]1C[C@@H]2CN(C)C[C@@H]2C1",
    "Target entity": "HS-PSS",
    "Group label": "not fulfilled"
  },
  {
    "Molecule": "COc1cc(NS(C)(=O)=O)ccc1Nc1c2ccccc2nc2ccccc12",
    "Target entity": "HS-PSS",
    "Group label": "fulfilled"
  },
  {
    "Molecule": "Nc1ncnc2c1c(-c1cccc(OCc3ccccc3)c1)cn2[C@H]1C[C@@H](CN2CCC2)C1",
    "Target entity": "HS-PSS",
    "Group label": "fulfilled"
  },
  {
    "Molecule": "CC(C)(C)NC(=O)[C@H]1CC[C@H]2[C@@H]3CC[C@H]4NC(=O)C=C[C@]4(C)[C@H]3CC[C@]12C [Finasteride]",
    "Target entity": "HS-PSS",
    "Group label": "fulfilled"
  },
  {
    "Molecule": "CCNC(=O)c1noc(-c2cc(C(C)C)c(O)cc2O)c1-c1ccc(CN2CCOCC2)cc1",
    "Target entity": "HS-PSS",
    "Group label": "not fulfilled"
  },
  {
    "Molecule": "CC[C@H](CO)Nc1nc(NCc2ccccc2)c2ncn(C(C)C)c2n1",
    "Target entity": "HS-PSS",
    "Group label": "fulfilled"
  }
]

Task: Decide: relative IC50 of O=C(NC1CCNCC1)c1n[nH]cc1NC(=O)c1c(Cl)cccc1Cl >= 700 nM?
Output: not fulfilled

Task: Decide: relative IC50 of Cc1ccc(-c2cc(C(F)(F)F)nn2-c2ccc(S(N)(=O)=O)cc2)cc1 >= 700 nM?
Output: fulfilled

Task: Decide: relative IC50 of Cc1c2oc3c(C)ccc(C(=O)N[C@@H]4C(=O)N[C@H](C(C)C)C(=O)N5CCC[C@H]5C(=O)N(C)CC(=O)N(C)[C@@H](C(C)C)C(=O)O[C@@H]4C)c3nc-2c(C(=O)N[C@@H]2C(=O)N[C@H](C(C)C)C(=O)N3CCC[C@H]3C(=O)N(C)CC(=O)N(C)[C@@H](C(C)C)C(=O)O[C@@H]2C)c(N)c1=O >= 700 nM?
Output: not fulfilled

Task: Decide: relative IC50 of CCCCC/C=C/C=C1/C(=O)C=C[C@@H]1C/C=C\CCCC(=O)O [15D-PGJ2] >= 700 nM?
Output: fulfilled

Task: Decide: relative IC50 of Cn1c(Nc2ccc(C(F)(F)F)cc2)nc2cc(Oc3ccnc(-c4ncc(C(F)(F)F)[nH]4)c3)ccc21 >= 700 nM?
Output: not fulfilled

Task: Decide: relative IC50 of CC1(C)CNc2cc(NC(=O)c3cccnc3NCc3ccncc3)ccc21 >= 700 nM?
Output: fulfilled

Task: Decide: relative IC50 of CCCCc1nc2cc(/C=C/C(=O)NO)ccc2n1CCN(CC)CC >= 700 nM?
Output: fulfilled

Task: Decide: relative IC50 of O=C(O)CSc1cc(NS(=O)(=O)c2ccc(Br)cc2)c2ccccc2c1O >= 700 nM?
Output: fulfilled

Task: Decide: relative IC50 of CCn1cc(-c2ccnc3[nH]c(-c4cccc(CN(C)C)c4)cc23)c(-c2ccc(NC(=O)N(C)C)cc2)n1 >= 700 nM?
Output: not fulfilled
